B1: EIF5 (parent)
chain: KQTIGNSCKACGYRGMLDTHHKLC

# Variants of: B1
# test_method_notes: protein stability index of a GFP-peptide fusion (GPS, HEK-293T) (PSI 1-6); higher = more stable;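 further: lentivirally expressed fusions sorted by FACS into six bins by GFP to DsRed ratio, PSI derived from sequencing read proportions per bin multiplied by bin number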
# settings: c terminus: a fixed tail appended
Parameter threshold = 3. Response is yes when protein stability index meets or exceeds it, else no.

Is protein stability index for S7F at or above 3?
yes

Is protein stability index for G12N at or above 3?
no
